System: Escherichia coli DH5α
Assay: MIC assay (broth micro-dilution)
Type: cell-based
Conditions: Table S11; LB broth, 37 °C, 16 h, n = 2
Bridge positions count the residues as written; N and C are the ends. Square brackets hold non-standard residues; d marks the D form. Peptide text beside a SMILES is read from it. * marks the point of attachment. Myristoyl = CCCCCCCCCCCCCC(=O)*; dOrn = NCCC[C@@H](N)C(=O)O; Orn = NCCC[C@H](N)C(=O)O; Dab = NCC[C@H](N)C(=O)O; Dap = NC[C@H](N)C(=O)O

{"compound": "CCCCCCCCCCCCCC(=O)N[C@@H](CCCN)C(=O)N[C@H](Cc1ccc(O)cc1)C(=O)N[C@@H](C(=O)N[C@H]1C(=O)N[C@H](CCCN)C(=O)N[C@@H](CCCN)C(=O)N[C@H](C(C)C)C(=O)N[C@@H]([C@@H](C)CC)C(=O)N[C@@H](CC(C)C)C(=O)N[C@H](CCCN)C(=O)N[C@@H]([C@@H](C)O)C(=O)N[C@@H](C)C(=O)O[C@H]1C)C(C)C [synAQU6-C4] (Myristoyl-[Orn][dY][dV][dT][dOrn][Orn][dV]IL[dOrn]TA; ester 4-C)", "sign-qualifier": "=", "MIC Escherichia coli DH5α / µg/mL": 8}
{"compound": "CCCCCCCCCCCCCC(=O)N[C@@H](Cc1ccccc1)C(=O)N[C@@H](CCCN)C(=O)N[C@H]1CCCNC(=O)CNC(=O)[C@H](CCN)NC(=O)[C@@H](Cc2ccc(O)cc2)NC(=O)[C@H](CC(C)C)NC(=O)[C@H]([C@@H](C)CC)NC(=O)[C@@H](C(C)C)NC1=O [synAQU2-C3] (Myristoyl-F[Orn][Orn][dV]IL[dY][Dab]G; lactam 3-C)", "sign-qualifier": ">", "MIC Escherichia coli DH5α / µg/mL": 64}
{"compound": "CCCCCCCCCCCCCC(=O)N[C@@H](CN)C(=O)N[C@H](C(=O)N[C@@H](CC(C)C)C(=O)N[C@@H](CO)C(=O)N[C@@H](CCN)C(=O)N[C@@H](CN)C(=O)N[C@@H](Cc1ccccc1)C(=O)N[C@H](C(=O)N[C@@H](CCCN)C(=O)N[C@@H](CC(N)=O)C(=O)N[C@@H](Cc1ccccc1)C(=O)O)[C@@H](C)CC)[C@@H](C)O [synAQU5-L] (Myristoyl-[Dap]TLS[Dab][Dap]FI[Orn]NF-OH)", "sign-qualifier": "=", "MIC Escherichia coli DH5α / µg/mL": 2}

---

Test system: Staphylococcus aureus ATCC 6538
Assay: microbe, parasite or virus in culture
Type: cell-based
Settings: ATCC 6538, 16 h
Numbered stars: 1 amine (or outer) side, 2 acyl side, 3 side chain; on linkers, the order of the positions; unused ones are H or OH. Bridge positions count the residues as written; N and C are the ends. Square brackets hold non-standard residues; d marks the D form. Peptide text beside a SMILES is read from it. * marks the point of attachment. X3 = CCCCC[C@H](CC(=O)[*:1])O[*:2]; Myristoyl = CCCCCCCCCCCCCC(=O)*; X2 = NC[C@H](Cc1ccc(O)cc1)N*; dOrn = NCCC[C@@H](N)C(=O)O; X1 = CC(C)[C@H](O)CC(=O)*; Orn = NCCC[C@H](N)C(=O)O; Dab = NCC[C@H](N)C(=O)O; Dap = NC[C@H](N)C(=O)O; βAla = NCCC(=O)O

{"compound": "CCCCCCCCCCCCCC(=O)N[C@@H](CN)C(=O)N[C@H](C(=O)N[C@@H](CC(C)C)C(=O)N[C@H]1COC(=O)[C@H](Cc2ccccc2)NC(=O)[C@H](CC(N)=O)NC(=O)[C@H](CCCN)NC(=O)[C@H]([C@@H](C)CC)NC(=O)[C@H](Cc2ccccc2)NC(=O)[C@H](CN)NC(=O)[C@H](CCN)NC1=O)[C@@H](C)O [synAQU5-C4] (Myristoyl-[Dap]TLS[Dab][Dap]FI[Orn]NF; ester 4-C)", "tested-system": "Staphylococcus aureus ATCC 6538", "sign-qualifier": "=", "MIC Staphylococcus aureus ATCC 6538 / µg/mL": 4}
{"compound": "CCCCCCCCCCCCCC(=O)N[C@@H](CCCN)C(=O)N[C@H](Cc1ccc(O)cc1)C(=O)N[C@@H](C(=O)N[C@H]1C(=O)N[C@H](CCCN)C(=O)N[C@@H](CCCN)C(=O)N[C@H](C(C)C)C(=O)N[C@@H]([C@@H](C)CC)C(=O)N[C@@H](CC(C)C)C(=O)N[C@H](CCCN)C(=O)N[C@@H]([C@@H](C)O)C(=O)N[C@@H](C)C(=O)O[C@H]1C)C(C)C [synAQU6-C4] (Myristoyl-[Orn][dY][dV][dT][dOrn][Orn][dV]IL[dOrn]TA; ester 4-C)", "tested-system": "Staphylococcus aureus ATCC 6538", "sign-qualifier": "=", "MIC Staphylococcus aureus ATCC 6538 / µg/mL": 16}
{"compound": "CC[C@H](C)[C@H](NC(=O)[C@@H](NC(=O)[C@@H](C)NC(=O)[C@H](C)NC(=O)[C@@H](NC(=O)C[C@@H](O)C(C)C)C(C)C)[C@@H](C)CC)C(=O)NCCC(=O)N[C@@H](CC(C)C)C(=O)N[C@H](C)C(=O)N[C@H](C(=O)N[C@H](CN)Cc1ccc(O)cc1)[C@@H](C)CC [synAQU4-L] (X1-VA[dA]II[βAla]L[dA]I-X2)", "tested-system": "Staphylococcus aureus ATCC 6538", "sign-qualifier": ">", "MIC Staphylococcus aureus ATCC 6538 / µg/mL": 64}
{"compound": "CCCCCCCCCCCCCC(=O)N[C@@H](CN)C(=O)N[C@H](C(=O)N[C@@H](CC(C)C)C(=O)N[C@@H](CO)C(=O)N[C@@H](CCN)C(=O)N[C@@H](CN)C(=O)N[C@@H](Cc1ccccc1)C(=O)N[C@H](C(=O)N[C@@H](CCCN)C(=O)N[C@@H](CC(N)=O)C(=O)N[C@@H](Cc1ccccc1)C(=O)O)[C@@H](C)CC)[C@@H](C)O [synAQU5-L] (Myristoyl-[Dap]TLS[Dab][Dap]FI[Orn]NF-OH)", "tested-system": "Staphylococcus aureus ATCC 6538", "sign-qualifier": "=", "MIC Staphylococcus aureus ATCC 6538 / µg/mL": 16}
{"compound": "CCCCC[C@@H]1CC(=O)N[C@@H](CN)C(=O)N[C@@H](Cc2ccccc2)C(=O)N[C@@H](CCN)C(=O)N[C@@H]([C@@H](C)O)C(=O)N[C@H](Cc2ccccc2)C(=O)N[C@@H](CN)C(=O)N[C@H](CC(C)C)C(=O)N[C@@H](C(C)C)C(=O)N[C@@H](CC(=O)O)C(=O)O1 [synAQU3-cFA] ([Dap]F[Dab]T[dF][Dap][dL]VD; linker N-C via X3)", "tested-system": "Staphylococcus aureus ATCC 6538", "sign-qualifier": ">", "MIC Staphylococcus aureus ATCC 6538 / µg/mL": 64}
{"compound": "CCCCCCCCCCCCCC(=O)N[C@@H](Cc1ccccc1)C(=O)N[C@@H](CCCN)C(=O)N[C@H]1CCCNC(=O)CNC(=O)[C@H](CCN)NC(=O)[C@@H](Cc2ccc(O)cc2)NC(=O)[C@H](CC(C)C)NC(=O)[C@H]([C@@H](C)CC)NC(=O)[C@@H](C(C)C)NC1=O [synAQU2-C3] (Myristoyl-F[Orn][Orn][dV]IL[dY][Dab]G; lactam 3-C)", "tested-system": "Staphylococcus aureus ATCC 6538", "sign-qualifier": "=", "MIC Staphylococcus aureus ATCC 6538 / µg/mL": 16}
{"compound": "CCCCCCCCCCCCCC(=O)N[C@@H](CCCN)C(=O)N[C@H](Cc1ccc(O)cc1)C(=O)N[C@@H](C(=O)N[C@@H](C(=O)N[C@H](CCCN)C(=O)N[C@@H](CCCN)C(=O)N[C@@H](C(=O)N[C@H](C(=O)N[C@@H](CC(C)C)C(=O)N[C@H](CCCN)C(=O)N[C@H](C(=O)N[C@@H](C)C(=O)O)[C@@H](C)O)[C@@H](C)CC)C(C)C)[C@H](C)O)C(C)C [synAQU6-L] (Myristoyl-[Orn][dY][dV][dT][dOrn][Orn][dV]IL[dOrn]TA-OH)", "tested-system": "Staphylococcus aureus ATCC 6538", "sign-qualifier": "=", "MIC Staphylococcus aureus ATCC 6538 / µg/mL": 32}

// data source = paper PMC12677607
